B1: ZNF193 (parent)
chain: QCIECGKSFNRHCNLIRHQKIHTV

Variants of: B1
TEST SUMMARY: protein stability index of a GFP-peptide fusion (GPS, HEK-293T) (PSI 1-6); higher = more stable;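 further: lentivirally expressed fusions sorted by FACS into six bins by GFP to DsRed ratio, PSI derived from sequencing read proportions per bin multiplied by bin number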
EXPERIMENTAL SETUP: c terminus: a fixed tail appended
OBSERVATION TYPE: protein stability index
Give bare numbers.

VARIANT DESCRIPTOR	protein stability index
R11K	3.7

Hi! Can you tell me protein stability index for each of these variants?
1. R11W
2. I3R
3. H12S
4. Q1N

result:
2.62
3.59
3.22
2.56

Return reported protein stability index values for all items listed beneath this line.
1. E4F
2. R11S

result:
[3.94, 4.1]

I would be grateful if you could provide protein stability index for each of the following entries.
1. G6R
2. I21Q
3. N14Q
4. C5V
5. K20M

result:
[2.5, 4.49, 4.31, 2.13, 3.13]

For each entry beneath this line, provide reported protein stability index.
1. S8F
2. H12Y
3. C5S
4. T23M
5. H18V
6. N10L
7. G6E

result:
1: 4.03; 2: 3.27; 3: 2.56; 4: 3.33; 5: 1.45; 6: 2.48; 7: 2.84

// for each variant below, give its protein stability index
1. I3A
2. T23E
3. R17W

result:
1: 4.7; 2: 4.38; 3: 2.66

The following variants each have a reported value; give each one's protein stability index.
1. I21S
2. R11H

result:
1. 4
2. 3.5

Okay, here is my list. What is protein stability index for each of these?
1. H22L
2. H18M
3. V24T
4. F9Q
5. C2T
6. I3V
7. C2G
8. C2I

result:
[2.88, 1.65, 3.84, 2.88, 1.74, 3.73, 2.13, 2.06]

Please state, for each entry, its recorded protein stability index.
1. F9S
2. H12P
3. E4H
4. N14K
5. R17F

result:
[2.83, 3.74, 4.27, 3.38, 2.22]
